experimentalDetails: thallium influx changes without GIRK channels – cell-based, HEK-293 rmGlu8, no GIRK, thallium flux, counter-screen for GIRK activator project, confirmation (AID 623868)
assayConditions: thallium flux fluorescence, at 10 µM, actives lie on both sides, codes: 1 enhancer, -1 blocker, 0 none, thallium stimulus containing EC20 glutamate
Out of some 2,100 compounds screened, about 760 (36%) were called active.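 The calls were made as follows: active = thallium-flux fluorescence traces judged by eye to show enhanced or reduced glutamate response, manual score 1 or -1, so both directions (some results past the limit were not filed as active); inactive = the rest, including fluorescent or raised-baseline compounds.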 Only a sample is shown.
Answer with one of the outcomes given here: active, inactive

Per the records of this test, what outcome belongs to CCC(C)NC(=O)c1ccccc1NC(=O)Nc1ccccc1 (configuration not stated) ?
inactive

Per the records of this test, what outcome belongs to CCN1c2ccccc2-c2nc3ccccc3n2C1c1ccco1 (configuration not stated) ?
inactive

Per the records of this test, what outcome belongs to `O=C1NC(=S)/C(=C\c2ccc(-c3ccccc3Cl)o2)S1` ?
inactive

Per the records of this test, what outcome belongs to CCN(CC)CCN1C(=O)c2oc3ccccc3c(=O)c2C1c1ccccc1 (configuration not stated) ?
inactive

Per the records of this test, what outcome belongs to CCC(C)n1c(=S)[nH]c2c(sc3ccc([N+](=O)[O-])cc32)c1=O (configuration not stated) ?
active

Per the records of this test, what outcome belongs to CCOc1ccc(C(C)=O)cc1N1C(=O)C2C(C1=O)C1C=CC2C12CC2 (configuration not stated) ?
inactive

Per the records of this test, what outcome belongs to `Cc1cccc(N2C(=O)CS/C2=N\NC(=O)c2ccc(Cl)cc2)c1C` ?
active

Per the records of this test, what outcome belongs to `CCN(CC)C(=O)CN(c1ccc2c(c1)OCO2)S(C)(=O)=O` ?
inactive

Per the records of this test, what outcome belongs to `O=C(CSc1nnnn1-c1cccc2c1CCCC2)NC1CCCC1` ?
inactive

Per the records of this test, what outcome belongs to `CC(C)CC(=O)CN1C(=O)C2(OCCO2)c2ccccc21` ?
inactive

Per the records of this test, what outcome belongs to CCOP(=O)(c1ccccc1)c1nc(-c2ccccc2C)oc1N1CCCCC1 (configuration not stated) ?
inactive

Per the records of this test, what outcome belongs to CCOC(=O)C1(C(C)(C)CC)CC(CSc2nc3ccccc3[nH]2)OC1=O (configuration not stated) ?
inactive

Per the records of this test, what outcome belongs to Cc1ccc(-c2cn(-c3ccccc3)c(SCC(=O)NC3CCS(=O)(=O)C3)n2)cc1C (configuration not stated) ?
active

Per the records of this test, what outcome belongs to O=C1C2C3C=CC(C3)C2C(=O)N1/N=C/c1cn(Cc2ccccc2)c2ccccc12 (configuration not stated) ?
inactive

Per the records of this test, what outcome belongs to `Nc1c(-c2ccccc2)cnn1-c1ccc(C(=O)O)cc1` ?
inactive

Per the records of this test, what outcome belongs to `CC1CCN(c2ccc(/C=N/n3nnnc3N)cc2[N+](=O)[O-])CC1` ?
inactive

Per the records of this test, what outcome belongs to C=CCNC(=O)C1CC(=O)N(c2ccc(OCC(=O)Nc3ccccc3)cc2)C1 (configuration not stated) ?
inactive

Per the records of this test, what outcome belongs to CCN(CC)CCN1C(=O)c2oc3ccccc3c(=O)c2C1c1ccc(F)cc1 (configuration not stated) ?
inactive

Per the records of this test, what outcome belongs to `O=C(Nc1ccccc1C(=O)O)c1ccc(NC(=O)c2ccc(Br)o2)cc1` ?
active

Per the records of this test, what outcome belongs to `O=C(NNc1ccccc1Br)C(=O)n1ccc2ccccc21` ?
active

Per the records of this test, what outcome belongs to Cc1ccc(OCC(O)Cn2c(=N)n(CCN3CCCCC3)c3ccccc32)cc1 (configuration not stated) ?
inactive

Per the records of this test, what outcome belongs to `CCCCN(CCCC)C(=O)CSc1nnc2n(C)c(=O)c3c4c(sc3n12)CCCC4` ?
active
